- Target of assay: WT 5-HT3AB receptor (Homo sapiens, UniProt O95264+P46098)
- Protocol details: radioligand saturation binding, transfected HEK293 membranes
- Experimental parameters: [3H]-palonosetron saturation, 4 °C, 24 h
Readout label: Kd

Query (compound): O=C1c2cccc3c2[C@H](CCC3)CN1[C@@H]1CN2CCC1CC2 [Palonosetron] ; field requested: Kd 0.18 nM

====

- Target of assay: 5-HT3AB receptor, 5-HT3B subunit E170A (Homo sapiens, UniProt P46098)
- Construct: variant as stated: E170A
- Protocol details: biochemical
- Experimental parameters: [3H]-palonosetron saturation, 5-HT3AB with 5-HT3B E170A, 4 °C, 24 h
Readout label: Kd (nM)
Numbers only; they are read as nM.

What does the record list as Kd for O=C1c2cccc3c2[C@H](CCC3)CN1[C@@H]1CN2CCC1CC2 ? 0.21

====

- Target of assay: 5-HT3AB receptor, 5-HT3B subunit F130A (Homo sapiens, UniProt O95264+P46098, F123A)
- Protocol details: cell-based
Readout label: pIC50
# log scale: pIC50 equals minus log10 of the concentration in mol/L

Query: pIC50; subject: O=C1c2cccc3c2[C@H](CCC3)CN1[C@@H]1CN2CCC1CC2 9.08

====

- Target of assay: 5-HT3AB receptor, 5-HT3B subunit I183A (Homo sapiens, UniProt O95264+P46098, I176A)
- Protocol details: radioligand saturation binding, transfected HEK293 membranes
- Experimental parameters: [3H]-palonosetron saturation, 5-HT3AB with 5-HT3B I183A, 4 °C, 24 h
Readout label: Kd (nM)
Number only, in nM; omit the unit.

What does the data say about its Kd? Entry: O=C1c2cccc3c2[C@H](CCC3)CN1[C@@H]1CN2CCC1CC2 0.23

====

- Target of assay: 5-HT3A receptor D165K (Homo sapiens, UniProt P46098, D160K)
- Protocol details: FlexStation membrane potential dye functional assay, HEK293 cells
- Experimental parameters: inhibition of 5-HT (EC50 concentration) response, 45 min preincubation, 5-HT3A D165K
Readout label: pIC50
Schema: pIC50 number; meaning minus log10 of the concentration expressed in molar units.

Dear colleague, I am looking for the recorded pIC50 of the following compound: O=C1c2cccc3c2[C@H](CCC3)CN1[C@@H]1CN2CCC1CC2 8.89

====

- Target of assay: 5-HT3A receptor W90C (Homo sapiens, UniProt P46098, W85C)
- Protocol details: radioligand saturation binding, transfected HEK293 membranes
- Experimental parameters: [3H]-palonosetron saturation, 5-HT3A W90C, 4 °C, 24 h; NB = no binding
Readout label: Kd

Bench note: what Kd did O=C1c2cccc3c2[C@H](CCC3)CN1[C@@H]1CN2CCC1CC2 [Palonosetron] show? > 2 nM

====

- Target of assay: 5-HT3A receptor Y73F (Homo sapiens, UniProt P46098, Y68F)
- Protocol details: radioligand saturation binding, transfected HEK293 membranes
- Experimental parameters: [3H]-palonosetron saturation, 5-HT3A Y73F, 4 °C, 24 h
Readout label: Kd (nM)
Number in nM, nothing else.

Can you look up the measured Kd of O=C1c2cccc3c2[C@H](CCC3)CN1[C@@H]1CN2CCC1CC2 for me? 0.25

====

- Target of assay: 5-HT3AB receptor, 5-HT3B subunit F130A (Homo sapiens, UniProt O95264+P46098, F123A)
- Sequence (P46098 24-478): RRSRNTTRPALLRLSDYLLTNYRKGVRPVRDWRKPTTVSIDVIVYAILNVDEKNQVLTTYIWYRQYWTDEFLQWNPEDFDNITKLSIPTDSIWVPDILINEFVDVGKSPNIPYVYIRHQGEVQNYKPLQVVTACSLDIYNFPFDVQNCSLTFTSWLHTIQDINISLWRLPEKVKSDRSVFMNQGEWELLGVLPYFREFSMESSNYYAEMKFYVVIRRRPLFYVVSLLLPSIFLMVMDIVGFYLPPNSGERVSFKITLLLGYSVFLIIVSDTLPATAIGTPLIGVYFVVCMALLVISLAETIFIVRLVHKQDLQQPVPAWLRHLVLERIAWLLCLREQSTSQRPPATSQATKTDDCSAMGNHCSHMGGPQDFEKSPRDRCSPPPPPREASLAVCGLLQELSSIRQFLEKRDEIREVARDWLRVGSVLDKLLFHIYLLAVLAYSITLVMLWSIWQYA
- Sequence (O95264 22-441 F123A): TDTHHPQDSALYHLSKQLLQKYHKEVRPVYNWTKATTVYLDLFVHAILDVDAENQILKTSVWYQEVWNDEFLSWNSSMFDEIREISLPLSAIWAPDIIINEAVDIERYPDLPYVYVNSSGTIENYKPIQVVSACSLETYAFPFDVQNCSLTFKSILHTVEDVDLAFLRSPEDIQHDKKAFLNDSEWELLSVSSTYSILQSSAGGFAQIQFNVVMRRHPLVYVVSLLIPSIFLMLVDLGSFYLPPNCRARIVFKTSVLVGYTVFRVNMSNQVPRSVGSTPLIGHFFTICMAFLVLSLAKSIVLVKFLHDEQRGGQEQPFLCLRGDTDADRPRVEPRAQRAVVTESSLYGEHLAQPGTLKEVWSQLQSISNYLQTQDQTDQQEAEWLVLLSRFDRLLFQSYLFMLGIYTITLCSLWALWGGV
- Protocol details: radioligand saturation binding, transfected HEK293 membranes
- Experimental parameters: [3H]-palonosetron saturation, 5-HT3AB with 5-HT3B F130A, 4 °C, 24 h
Readout label: Kd (nM)
The reply should contain only the number, in nM.

# input compound: O=C1c2cccc3c2[C@H](CCC3)CN1[C@@H]1CN2CCC1CC2 [Palonosetron] ; wanted: its Kd 0.48

Every entry's value here was drawn from paper PMC3898987.
